# TEST_SUMMARY: recombinant UMI read abundance after kanamycin selection (control-corrected) (log10(CPM+1)); higher = more efficient recombination; extreme values may be limits of the assay; sequences stand for … in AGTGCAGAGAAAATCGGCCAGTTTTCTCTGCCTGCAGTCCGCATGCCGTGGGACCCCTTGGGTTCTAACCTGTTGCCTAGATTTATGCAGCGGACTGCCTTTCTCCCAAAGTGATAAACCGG…AGGTTGGTTTCACT; site = the 11-nt donor;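 note: IS621 bridge recombinase in Escherichia coli cells against a fixed T5 target plasmid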
recombinant UMI read abundance (log10) values, listed per item

[
  {
    "ENTRY_SEQUENCE": "GATTGAACATGGACCGGTTTTCCCGGTAATCCGTATTTGAC (site GATTGCACTGT)",
    "recombinant UMI read abundance (log10)": 0.00522
  },
  {
    "ENTRY_SEQUENCE": "AGGGTCCCATGGACCGGTTTTCCCGGTAATCCGTATTTGTG (site AGGCTCCCTCA)",
    "recombinant UMI read abundance (log10)": 0.0118
  },
  {
    "ENTRY_SEQUENCE": "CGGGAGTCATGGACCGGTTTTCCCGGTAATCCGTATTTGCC (site CGAGAGTCTGG)",
    "recombinant UMI read abundance (log10)": 2.48
  },
  {
    "ENTRY_SEQUENCE": "CCCCACACATGGACCGGTTTTCCCGGTAATCCGTATTTGTA (site CCCCTCACTTA)",
    "recombinant UMI read abundance (log10)": 0.0137
  },
  {
    "ENTRY_SEQUENCE": "CTTCTCTCATGGACCGGTTTTCCCGGTAATCCGTATTTGTA (site CTTCACTCTTA)",
    "recombinant UMI read abundance (log10)": 0
  },
  {
    "ENTRY_SEQUENCE": "CAAGTCCCATGGACCGGTTTTCCCGGTAATCCGTATTTGGG (site CAAGTCTCTCC)",
    "recombinant UMI read abundance (log10)": 0.025
  },
  {
    "ENTRY_SEQUENCE": "TTATGCGCATGGACCGGTTTTCCCGGTAATCCGTATTTGCC (site TTATGCGCTGG)",
    "recombinant UMI read abundance (log10)": 1.93
  },
  {
    "ENTRY_SEQUENCE": "GTAAAGACATGGACCGGTTTTCCCGGTAATCCGTATTTGGG (site GTAAAGACTCC)",
    "recombinant UMI read abundance (log10)": 0.889
  },
  {
    "ENTRY_SEQUENCE": "TCCACTTCATGGACCGGTTTTCCCGGTAATCCGTATTTGCC (site TCCAATTCTGG)",
    "recombinant UMI read abundance (log10)": 0
  },
  {
    "ENTRY_SEQUENCE": "ACATCTACATGGACCGGTTTTCCCGGTAATCCGTATTTGCG (site ACATCTACTCC)",
    "recombinant UMI read abundance (log10)": 0.0147
  },
  {
    "ENTRY_SEQUENCE": "GATTATCCATGGACCGGTTTTCCCGGTAATCCGTATTTGGT (site GATTATCCTAT)",
    "recombinant UMI read abundance (log10)": 0
  },
  {
    "ENTRY_SEQUENCE": "GGTACTGCATGGACCGGTTTTCCCGGTAATCCGTATTTGCC (site GATACTGCTGG)",
    "recombinant UMI read abundance (log10)": 0
  },
  {
    "ENTRY_SEQUENCE": "GTGTTGACATGGACCGGTTTTCCCGGTAATCCGTATTTGTG (site GTGTTGACTCA)",
    "recombinant UMI read abundance (log10)": 1.33
  },
  {
    "ENTRY_SEQUENCE": "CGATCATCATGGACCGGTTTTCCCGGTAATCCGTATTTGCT (site CGATCAACTCG)",
    "recombinant UMI read abundance (log10)": 0
  },
  {
    "ENTRY_SEQUENCE": "CGAACTCCATGGACCGGTTTTCCCGGTAATCCGTATTTGGG (site CGAACTCCTCC)",
    "recombinant UMI read abundance (log10)": 0.143
  },
  {
    "ENTRY_SEQUENCE": "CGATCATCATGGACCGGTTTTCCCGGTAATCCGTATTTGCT (site CCATCATCTAG)",
    "recombinant UMI read abundance (log10)": 0.987
  },
  {
    "ENTRY_SEQUENCE": "AAAGTAACATGGACCGGTTTTCCCGGTAATCCGTATTTGCT (site AAGGTAACTAG)",
    "recombinant UMI read abundance (log10)": 1.66
  },
  {
    "ENTRY_SEQUENCE": "AATTATGCATGGACCGGTTTTCCCGGTAATCCGTATTTGGA (site AGTTATGCTTC)",
    "recombinant UMI read abundance (log10)": 1.09
  },
  {
    "ENTRY_SEQUENCE": "TAAGGAGCATGGACCGGTTTTCCCGGTAATCCGTATTTGGG (site TAACGAGCTCC)",
    "recombinant UMI read abundance (log10)": 0
  },
  {
    "ENTRY_SEQUENCE": "GCCCTCCCATGGACCGGTTTTCCCGGTAATCCGTATTTGTG (site GCCCTCCCTCA)",
    "recombinant UMI read abundance (log10)": 0.0428
  },
  {
    "ENTRY_SEQUENCE": "AATTTGTCATGGACCGGTTTTCCCGGTAATCCGTATTTGAC (site AATATGTCTGT)",
    "recombinant UMI read abundance (log10)": 0
  },
  {
    "ENTRY_SEQUENCE": "GCCACGCCATGGACCGGTTTTCCCGGTAATCCGTATTTGGA (site GCCACGCCTTT)",
    "recombinant UMI read abundance (log10)": 0.00923
  },
  {
    "ENTRY_SEQUENCE": "TGATGAGCATGGACCGGTTTTCCCGGTAATCCGTATTTGGG (site TCATGAGCTCC)",
    "recombinant UMI read abundance (log10)": 0.0102
  },
  {
    "ENTRY_SEQUENCE": "GAAAACGCATGGACCGGTTTTCCCGGTAATCCGTATTTGGA (site GAAAACGCTTC)",
    "recombinant UMI read abundance (log10)": 1.02
  },
  {
    "ENTRY_SEQUENCE": "TAGGAAACATGGACCGGTTTTCCCGGTAATCCGTATTTGCG (site TAGGAAACTCG)",
    "recombinant UMI read abundance (log10)": 2.39
  },
  {
    "ENTRY_SEQUENCE": "CGGCTTACATGGACCGGTTTTCCCGGTAATCCGTATTTGTC (site CGGCTTACTGA)",
    "recombinant UMI read abundance (log10)": 1.65
  },
  {
    "ENTRY_SEQUENCE": "CGAGGACCATGGACCGGTTTTCCCGGTAATCCGTATTTGGA (site CGAGGACCTCC)",
    "recombinant UMI read abundance (log10)": 0.0127
  },
  {
    "ENTRY_SEQUENCE": "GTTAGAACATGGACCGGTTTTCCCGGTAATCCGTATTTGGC (site GTAAGAACTGC)",
    "recombinant UMI read abundance (log10)": 0
  },
  {
    "ENTRY_SEQUENCE": "AATAGAACATGGACCGGTTTTCCCGGTAATCCGTATTTGAG (site ACTAGAACTCT)",
    "recombinant UMI read abundance (log10)": 1.6
  }
]

Source of measurements: the supplement of paper PMC11208160
